Biological target: GST-tagged-Wee1 kinase (Homo sapiens, UniProt P30291)
Construct: purchased Carnabio 05-177
Sequence (P30291 whole entry): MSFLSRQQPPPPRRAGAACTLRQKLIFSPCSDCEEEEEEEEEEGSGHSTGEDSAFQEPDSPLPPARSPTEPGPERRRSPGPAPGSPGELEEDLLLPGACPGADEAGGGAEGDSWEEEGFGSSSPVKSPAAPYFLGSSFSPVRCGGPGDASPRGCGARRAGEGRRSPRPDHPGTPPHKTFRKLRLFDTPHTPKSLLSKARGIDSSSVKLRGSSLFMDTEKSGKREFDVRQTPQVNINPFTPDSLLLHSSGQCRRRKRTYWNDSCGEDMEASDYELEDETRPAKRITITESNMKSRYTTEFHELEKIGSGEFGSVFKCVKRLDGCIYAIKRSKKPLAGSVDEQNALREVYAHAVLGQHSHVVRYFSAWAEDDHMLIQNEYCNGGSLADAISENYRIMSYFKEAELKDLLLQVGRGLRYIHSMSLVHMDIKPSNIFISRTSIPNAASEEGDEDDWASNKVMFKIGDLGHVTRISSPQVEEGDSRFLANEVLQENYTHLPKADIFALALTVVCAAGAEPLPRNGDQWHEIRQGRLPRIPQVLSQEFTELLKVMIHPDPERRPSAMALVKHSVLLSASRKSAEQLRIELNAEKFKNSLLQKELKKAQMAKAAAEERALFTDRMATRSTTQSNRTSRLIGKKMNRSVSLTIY
Assay: Wee1 time-resolved fluorescence equilibrium binding assay (displacement of Oregon Green-labeled ATP-competitive kinase probe)
Settings: enzyme binding data; GST-tagged-Wee1 kinase 2 nM, fluorescent probe 300 nM, inhibitor 0.003 to 10 micromolar, 1 hour incubation; read-out: Wee-1 binding (Ki nM)
Measurement Kind: Ki (nM)

Worked cases, Ki given:
Any idea what Ki was measured for Cc1cccc(C)c1-n1cc(C)c2nc(Nc3ccc4c(c3)CN(C)CC43CC3)ncc2c1=O [Example 88] ?
0.544

And the next one, Cc1cccc(F)c1-n1cc(C)c2nc(Nc3ccc4c(c3)CNCC4)ncc2c1=O [Example 103] ?
0.9

And the next one, CN1Cc2cc(Nc3ncc4c(=O)n(-c5c(Cl)cccc5Cl)cc(CF)c4n3)ccc2C2(CC2)C1 [Example 113] ?
0.4

And the next one, CNc1ncc2c(=O)n(-c3c(Cl)cccc3Cl)cc(C)c2n1 [Example 65] ?
127

1 = O=c1c2cnc(Nc3ccc4c(c3)CCNC4)nc2c(-c2ncc[nH]2)cn1-c1c(Cl)cccc1Cl [Example 81]
2 = Cc1cn(-c2c(Cl)cccc2Cl)c(=O)c2cnc(Nc3ccc(S(=O)(=O)CCN(C)C)cc3)nc12 [Example 96]
3 = Cc1cn(-c2ccccc2-c2cnco2)c(=O)c2cnc(Nc3ccc(N4CCC(N(C)C)CC4)cc3)nc12 [Example 106]
4 = Cc1cccc(O)c1-n1cc(C)c2nc(Nc3ccc4c(c3)CNCC4)ncc2c1=O [Example 118]
5 = Cc1cn(-c2c(Cl)cccc2Cl)c(=O)c2nnc(Nc3ccc4c(c3)CNCC4)nc12 [Example 134]
Hey, quick one: sort these by Ki, low to high? Rank the items, then write their labels in that order.
1, 4, 2, 5, 3
(1: 0.4 nM, 4: 0.6 nM, 2: 1.8 nM, 5: 6.5 nM, 3: 115 nM)
